Target: T1, human EphA8 (Homo sapiens, UniProt P29322)
T1 construct: a protein of the extracellular region of each human Eph receptor fused with the SEAP protein and the His tag; made in house; host or cells: Expi293F cells (culture supernatant)
T1 sequence (P29322 28-542 limits assumed): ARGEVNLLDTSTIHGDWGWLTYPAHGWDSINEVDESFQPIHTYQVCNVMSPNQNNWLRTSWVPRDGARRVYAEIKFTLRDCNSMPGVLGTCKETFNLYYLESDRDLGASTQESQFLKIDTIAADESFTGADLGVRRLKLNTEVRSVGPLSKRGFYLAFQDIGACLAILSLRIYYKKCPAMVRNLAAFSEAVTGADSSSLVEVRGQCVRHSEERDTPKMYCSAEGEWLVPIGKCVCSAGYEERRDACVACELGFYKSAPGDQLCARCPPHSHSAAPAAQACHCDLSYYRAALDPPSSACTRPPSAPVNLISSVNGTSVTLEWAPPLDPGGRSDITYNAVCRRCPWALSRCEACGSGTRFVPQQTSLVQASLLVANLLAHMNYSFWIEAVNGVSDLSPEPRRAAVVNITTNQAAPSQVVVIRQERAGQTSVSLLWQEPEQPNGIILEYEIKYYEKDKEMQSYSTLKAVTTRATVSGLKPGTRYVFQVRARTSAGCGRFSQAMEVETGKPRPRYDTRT
Assay: Selectivity ELISA of humanized antibodies for human Eph receptor
Assay type: binding
Conditions: coated protein 1 nM
Experimental Endpoint: hEphA8-SEAP-: absorbance at 450 nm, percentage with respect to hEphA4-SEAP-His as 100%

Molecule	Result
160 (antibody, V domains shown, synthetic humanized antibody heavy chain variable region sequence; synthetic humanized antibody light chain variable region sequence) VH: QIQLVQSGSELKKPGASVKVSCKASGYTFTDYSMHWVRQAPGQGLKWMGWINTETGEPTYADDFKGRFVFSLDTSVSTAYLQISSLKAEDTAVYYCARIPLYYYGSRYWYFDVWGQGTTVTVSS VL: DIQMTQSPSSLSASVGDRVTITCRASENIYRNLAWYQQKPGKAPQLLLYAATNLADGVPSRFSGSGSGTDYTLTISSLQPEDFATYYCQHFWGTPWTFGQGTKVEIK	5.4%
